test system: CRL-7250; test: Cytotoxic Profiling of Annotated Libraries Using Quantitative High-Throughput Screening (AID 1296008); conditions: Five cell lines viability, CellTiter-Glo ATP luminescence, 48-72 h; stronger effect = lower value; further: on the % scale 0 is the no-effect control and ±100 the full control effect; nearly all actives have a fitted effect of over 60% in size
Results filed as inconclusive are left out. Where a SMILES comes first, the peptide text is derived from it.
Item-by-item account of max response
Give just the numeric value; % need not be written.

Consider the reported max response for these compounds:
O=C(NO)c1ccccc1 :: -19.7
O=C(O)CCCC[P+](c1ccccc1)(c1ccccc1)c1ccccc1 :: 1.78

**Q:** Supply reported max response belonging to this compound: CC(CC(C#N)(c1ccccc1)C(C)C)N(C)C (stereo unspecified)
**A:** -3.29

**Q:** Give recorded max response. N[C@@H](Cn1ccc(=O)c(O)c1)C(=O)O
**A:** -0.877

**Q:** Retrieve max response measured for COC(=O)c1c(Cl)c(Cl)c(C(=O)OC)c(Cl)c1Cl and print it.
**A:** -7.84

**Q:** Annotate the compound CC(=O)N[C@@H](CO)C(=O)N[C@@H](CC(=O)O)C(=O)N[C@@H](CCCCN)C(=O)N1CCC[C@H]1C(=O)O (Ac-SDKP-OH) with its measured max response.
**A:** 3.47

**Q:** Please give the documented max response of CN(C)CCOC(c1ccccc1)c1ccc(Br)cc1 (stereo unspecified)
**A:** -20.9

**Q:** Query max response for CCCCC(O)/C=C(C)/C=C/C=C/C(=O)N1CCCC1=O (stereo unspecified)
**A:** 0.43

**Q:** Look up max response of COCCOCC(OC)OC and report it.
**A:** -5.92

**Q:** Provide one value: measured max response of NCC[C@H](O)C(=O)N[C@@H]1C[C@H](N)[C@@H](O[C@H]2O[C@H](CN)[C@@H](O)[C@H](O)[C@@H]2O)[C@H](O)[C@@H]1O[C@H]1O[C@H](CO)[C@@H](O)[C@H](N)[C@@H]1O
**A:** -2.25

**Q:** Give max response for O=C1NC(=O)/C(=C/c2ccc3c(c2)OC(F)(F)O3)S1
**A:** 4.23

###

Target: Cytochrome P450 3A4 (Homo sapiens)
Assay: qHTS Assay for Inhibitors and Substrates of Cytochrome P450 3A4 (AID 884); further: nearly all actives have a fitted effect of over 50% in size
Settings: recombinant CYP3A4, Luciferin-PPXE luminescence; series mostly up to 57.1 µM
Description: NIH Molecular Libraries Screening Centers Network [MLSCN] NIH Chemical Genomics Center [NCGC] The P450 gene superfamily is involved in the metabolism and clearance of xenobiotics. […] The luciferin is then measured by luminescence after the addition of a luciferase detection reagent. […] Inhibitors and some substrates limit the production of luciferin, and decrease measured luminescence. […]
Inconclusive results are not listed. Activity calls are given as the source filed them. Calls come from the whole dose curve; as a rule, active = well fitted inhibition curve with a large enough effect; inconclusive = small, poorly fitted or top-dose-only effect; inactive = no such curve, though single readings can be large or run the other way.
Lab note: assign the record to one of active, inactive

Worked examples, 10 molecules total:
CN(C)c1cc2c(Nc3ccc4c(cnn4Cc4ccccc4)c3)ncnc2cn1 :: active
CC(=O)OCC[N+](C)(C)C :: inactive
Cc1cc(C(C)(C)C)c(O)c(C(C)(C)C)c1 :: inactive
c1ccc2occc2c1 :: inactive
Cc1nn(-c2ccccc2)c(C)c1/C=N/N1CCN(Cc2ccccc2)CC1 :: inactive
O=C(O)/C=C(\CC(=O)O)C(=O)O :: inactive
Oc1ccccc1 :: inactive
C1N2CN3CN1CN(C2)C3 :: inactive
Nc1ncnc2nc[nH]c12 :: inactive
OCc1c[nH]c2ccccc12 :: inactive

**Q:** GET /call?item= CCCCC(CC)COC(=O)c1ccccc1C(=O)O (configuration not stated) returns the recorded outcome of this test.
**A:** inactive

**Q:** Hello, I am checking results. What call was entered for CCN(CC)CCOc1ccc(/C(=C(\Cl)c2ccccc2)c2ccccc2)cc1 ?
**A:** inactive

**Q:** Short answer needed: outcome of this test for O=C(NO)c1ccccc1 ?
**A:** inactive

**Q:** // outcome(item) with item = CCCC(=O)c1cc(O)c(O)cc1O
**A:** inactive

**Q:** For this molecule, state the assay outcome: CC(C)C(C)(C)C(C)(C)C(C)(C)S
**A:** inactive

**Q:** Field: outcome | Entry: CN(C(=O)C(Cl)Cl)c1ccc(OC(=O)c2ccco2)cc1
**A:** inactive

**Q:** Hello, I am checking results. What call was entered for CC(C)(C)c1ccc(O)c(O)c1 ?
**A:** inactive

###

target: Protein phosphatase 1D (Homo sapiens) (UniProt O15297); assay: Rhodamine-PBP qHTS Assay for Modulators of WT P53-Induced Phosphatase 1 (WIP1) (AID 1347425); conditions: recombinant WIP1, Rhodamine-PBP phosphate fluorescence, real-time; series mostly up to 57.5 µM; further: % of control where 0% means no effect
Sequence (O15297 whole entry, looked up): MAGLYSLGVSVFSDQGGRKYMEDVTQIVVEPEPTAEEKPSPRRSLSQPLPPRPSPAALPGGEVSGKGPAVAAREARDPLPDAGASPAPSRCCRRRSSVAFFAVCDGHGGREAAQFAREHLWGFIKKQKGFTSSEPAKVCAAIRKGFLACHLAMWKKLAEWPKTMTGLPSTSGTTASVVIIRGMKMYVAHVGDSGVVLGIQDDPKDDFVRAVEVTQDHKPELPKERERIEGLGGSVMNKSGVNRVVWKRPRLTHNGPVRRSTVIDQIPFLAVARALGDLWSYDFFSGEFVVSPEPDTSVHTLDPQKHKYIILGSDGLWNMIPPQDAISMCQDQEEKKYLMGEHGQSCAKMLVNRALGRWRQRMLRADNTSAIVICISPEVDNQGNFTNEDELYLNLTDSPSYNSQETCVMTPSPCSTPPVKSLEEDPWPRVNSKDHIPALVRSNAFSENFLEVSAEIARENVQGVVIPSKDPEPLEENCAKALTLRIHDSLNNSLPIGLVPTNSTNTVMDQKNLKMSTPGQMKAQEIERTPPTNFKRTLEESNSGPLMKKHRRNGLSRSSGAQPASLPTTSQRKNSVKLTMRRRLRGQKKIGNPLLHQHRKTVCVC
Records with an inconclusive call do not appear. The source made the active and inactive calls. Calls follow the shape of the dose curve; as a rule, active = well fitted curve in the direction sought with a large enough effect; inconclusive = small, poorly fitted or top-dose-only effect, or another doubt; inactive = no such curve, though single readings can be large or run the other way.
assay.readout: activity change, negative = inhibition

Oc1ccccc1-c1nnco1 :: inactive
O=C(O)/C=C(\CC(=O)O)C(=O)O :: inactive
CCCCCCCCCCCCCCCCCCNC(=O)OC1CCN(C(=O)OC[C@H](COC(=O)N(Cc2cccc[n+]2CC)C(=O)c2ccccc2OC)OC)CC1 :: inactive

###

assay: qHTS of pediatric cancer cell lines to identify multiple opportunities for drug repurposing: Primary screen for SK-N-MC cells (AID 1347093); conditions: SK-N-MC viability, CellTiter-Glo luminescence, 48 h; series mostly up to 46 µM; further: potency means the concentration at half of the fitted maximal effect
Results filed as inconclusive are left out. The source made the active and inactive calls. Calls follow the shape of the dose curve; as a rule, active = well fitted cell-killing curve with a large enough effect; inconclusive = small, poorly fitted or top-dose-only effect; inactive = no such curve, though single readings can be large or run the other way.
assay.readout: Potency

These recorded examples may help you get a feel for the data.
O=c1[nH]sc2cc(Cl)ccc12 :: 1 nM (active)
CC1(C)O[C@@H]2C[C@H]3[C@@H]4C[C@H](F)C5=CC(=O)C=C[C@]5(C)[C@@]4(F)[C@@H](O)C[C@]3(C)[C@]2(C(=O)CO)O1 :: inactive
COCCc1ccc(OCC2CO2)cc1 (stereo unspecified) :: inactive
CCCCOCCOC(=O)c1cccnc1 :: inactive

**Q:** Return Potency (reported value) for this molecule: NC(=O)NS(=O)(=O)c1ccc(Cl)cc1
**A:** inactive

**Q:** Output Potency of O=C1NCCN1CCN1CCC(c2cn(-c3ccc(F)cc3)c3ccc(Cl)cc23)CC1
**A:** 6680 nM (active)

**Q:** Name the recorded Potency of the molecule listed here: CC(Oc1c(Cl)cccc1Cl)C1=NCCN1 (stereo unspecified)
**A:** inactive

**Q:** Return Potency for the following molecule: CCN1C(=O)c2ccccc2C1Nc1ccc(OCCN2CCCCC2)cc1 (stereo unspecified)
**A:** inactive

###

assay: qHTS of pediatric cancer cell lines to identify multiple opportunities for drug repurposing: Primary screen for Rh41 cells (AID 1347108); details: Rh41 rhabdomyosarcoma viability, CellTiter-Glo luminescence, 48 h; series mostly up to 46 µM;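 further: luminescence drop marks cytotoxic hits; nearly all actives have a fitted effect of over 70% in size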
Results filed as inconclusive are left out. Calls of active or inactive are those of the source. The call rests on the fitted dose curve; in most records, active means well fitted cell-killing curve with a large enough effect; inconclusive means small, poorly fitted or top-dose-only effect; inactive means no such curve, though single readings can be large or run the other way. Where a SMILES comes first, the peptide text is derived from it. [ ]: non-standard residue; d: D form. pGlu = O=C1CC[C@@H](C(=O)O)N1
assay.readout: outcome

Known results for molecules:
OC(CCCN1CCCCC1)(c1ccccc1)c1ccccc1 :: inactive
CCOC(=O)c1ccc(O)c(O)c1 :: inactive
CCN(CC)CC(=O)Oc1ccc(NC(C)=O)cc1 :: inactive
Cc1ccc2c(Cl)cc(Cl)c(O)c2n1 :: inactive
OC[C@]1(O)OC[C@@H](O)[C@H](O)[C@@H]1O :: inactive

**Q:** Recall and state the measured outcome for [O-][n+]1cccc(/C(Cl)=N/OC[C@@H](O)CN2CCCCC2)c1 .
**A:** inactive

**Q:** Read the entry CCNC(=O)[C@@H]1CCCN1C(=O)[C@H](CCCN=C(N)N)NC(=O)[C@H](CC(C)C)NC(=O)CNC(=O)[C@H](Cc1ccc(O)cc1)NC(=O)[C@H](CO)NC(=O)[C@H](Cc1c[nH]c2ccccc12)NC(=O)[C@H](Cc1cnc[nH]1)NC(=O)[C@@H]1CCC(=O)N1 ([pGlu]HWSYGLRP-NHEt) and write its reported outcome.
**A:** inactive

**Q:** Indicate the recorded outcome value for this molecule: NS(=O)(=O)c1cc(C(=O)NN2C[C@H]3[C@H]4CCC(C4)[C@H]3C2)ccc1Cl
**A:** inactive

**Q:** Determine its reported outcome: CN(C)C(=O)CNC(=O)Cc1ccccc1
**A:** inactive

###

assay: A High-Content qHTS Against Drug Library for the Identification of Small Molecules that Inhibit DYT1 Early Onset Primary Dystonia-Associated Cell Pathology (AID 1645839); details: HEK293 Flp-In EGFP-delE TorsinA, punctate imaging, 48 h; series mostly up to 46.1 µM
Inconclusive results are not listed. Calls of active or inactive are those of the source. The call rests on the fitted dose curve.
Could you please pick one outcome from this set? active, inactive

CN1[C@@H]2CC[C@H]1CC(NC(=O)n1c(=O)[nH]c3ccccc31)C2 (stereo partly specified) :: inactive
O=C(O)CNC(=O)CNC(=O)CNC(=O)CSC(=O)c1ccccc1 :: inactive
CC1CC(=O)NN=C1c1ccc(NCC(C)(C)NCC(O)COc2cc(Cl)ccc2C#N)cc1 (stereo unspecified) :: inactive
CC(=O)Oc1ccc(C2(c3ccc(OC(C)=O)cc3)Oc3ccccc3NC2=O)cc1 :: active

**Q:** Hi, do you know how CCOC(=O)c1ccc(NC(=O)CN2CCCCC2)cc1 came out in this test?
**A:** inactive

**Q:** What is the recorded call for this molecule in the test? CN1C(CSCC(F)(F)F)Nc2cc(Cl)c(S(N)(=O)=O)cc2S1(=O)=O (stereo unspecified)
**A:** inactive

**Q:** How did this test come out for Cc1ccc(Cl)c(OCC(O)CNC(C)(C)C)c1 (stereo unspecified) ?
**A:** inactive

**Q:** Please indicate how the test categorized O=C(O)Cn1c(=O)n(Cc2ccc(Br)cc2F)c(=O)c2ccc(Cl)cc21 .
**A:** inactive

**Q:** Check the results log: what was the call for O=C(O)c1ccc(OCCN2CCCCC2)cc1 ?
**A:** inactive
